src = paper PMC6009911

Molecular target: CYP2A13 (Homo sapiens, UniProt Q16696)
Construct: made in house
Sequence (Q16696 whole entry): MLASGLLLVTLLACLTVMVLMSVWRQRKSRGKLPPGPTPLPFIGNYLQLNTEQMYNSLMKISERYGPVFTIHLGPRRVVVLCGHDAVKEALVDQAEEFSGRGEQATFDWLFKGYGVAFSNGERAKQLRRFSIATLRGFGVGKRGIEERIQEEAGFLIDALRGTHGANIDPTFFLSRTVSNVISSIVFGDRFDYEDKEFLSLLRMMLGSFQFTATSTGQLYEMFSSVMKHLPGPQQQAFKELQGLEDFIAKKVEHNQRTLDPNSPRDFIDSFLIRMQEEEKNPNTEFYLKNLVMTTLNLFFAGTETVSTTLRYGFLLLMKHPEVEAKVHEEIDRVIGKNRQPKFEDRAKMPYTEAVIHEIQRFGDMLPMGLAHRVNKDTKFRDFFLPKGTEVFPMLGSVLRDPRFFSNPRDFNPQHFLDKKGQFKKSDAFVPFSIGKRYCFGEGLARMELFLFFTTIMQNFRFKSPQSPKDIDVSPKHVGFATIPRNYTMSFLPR
Assay: Inhibition of CYP2A13-mediated coumarin 7-hydroxylation, enzymatic reconstitution assay
Assay type: biochemical
Details: coincubation; coumarin 2 µM; read-out: IC50 CYP2A13 Coincubation
Description: Inhibitory effect of plant extracts, fractions, subfractions and constituents was determined by inhibition assay on CYP2A6- and CYP2A13-mediated coumarin 7-hydroxylation. The recombinant human CYP2A6, CYP2A13 and rat NADPH-dependent cytochrome P450 oxidoreductase (CYPOR) proteins were expressed, purified, according to the methods previously described. […] Rate of 7-hydroxycoumarin product formation was measured on spectrofluorometer (Shimadzu, Kyoto, Japan) at λex = 355 nm, λem = 460 nm. […]
pIC50: −log10 of the molar value.
Recorded pIC50 split into classes LOW (below 5), MID (5 to below 6), HIGH (6 or more)

compound="CC#Cc1ccc(C#CC#CC(O)CO)s1 (stereo not shown) [Thiophene 11]" classification=MID

Class? Entry: O=c1cc(-c2ccc(O)c(O)c2)oc2cc(O)cc(O)c12 [Luteolin 2, luteolin]
HIGH

Class? Entry: C=C(C)C(=O)OC1CC(C)C2(O)CCC(C)(/C=C3/OC(=O)C(COC(C)=O)=C31)O2 (stereo not shown) [Hirsutinolide 5]
LOW

Class? Entry: O=c1cc(-c2ccc(O)cc2)oc2cc(O)cc(O)c12 [Apigenin 1, apigenin]
HIGH

Class? Entry: CC#Cc1ccc(C#CC#CC(O)COC(C)=O)s1 (stereo not shown) [Thiophene 10]
MID

Class? Entry: CC(=O)OCC1=C2/C(=C\C3(C)CCC(O)(O3)C(C)CC2OC(=O)/C(C)=C/CO)OC1=O (stereo not shown) [Hirsutinolide 8]
LOW

Class? Entry: C/C=C(\C)C(=O)OC1CC(C)C2(O)CCC(C)(/C=C3/OC(=O)C(COC(C)=O)=C31)O2 (stereo not drawn) [Hirsutinolide 6, 8α-tigloyloxyhirsutinolide-13-O-acetate]
LOW

Class? Entry: C=C(CO)C(=O)OC1CC(C)C2(O)CCC(C)(/C=C3/OC(=O)C(COC(C)=O)=C31)O2 (stereo not shown) [Hirsutinolide 7]
LOW

Class? Entry: CC#CC#Cc1ccc(C#CC(O)COC(C)=O)s1 (stereo not shown) [Thiophene 9]
MID
